The following molecules are listed with their measured pIC50 values.
subject_of_test: Urease (Canavalia ensiformis)
Sequence (P07374 whole entry): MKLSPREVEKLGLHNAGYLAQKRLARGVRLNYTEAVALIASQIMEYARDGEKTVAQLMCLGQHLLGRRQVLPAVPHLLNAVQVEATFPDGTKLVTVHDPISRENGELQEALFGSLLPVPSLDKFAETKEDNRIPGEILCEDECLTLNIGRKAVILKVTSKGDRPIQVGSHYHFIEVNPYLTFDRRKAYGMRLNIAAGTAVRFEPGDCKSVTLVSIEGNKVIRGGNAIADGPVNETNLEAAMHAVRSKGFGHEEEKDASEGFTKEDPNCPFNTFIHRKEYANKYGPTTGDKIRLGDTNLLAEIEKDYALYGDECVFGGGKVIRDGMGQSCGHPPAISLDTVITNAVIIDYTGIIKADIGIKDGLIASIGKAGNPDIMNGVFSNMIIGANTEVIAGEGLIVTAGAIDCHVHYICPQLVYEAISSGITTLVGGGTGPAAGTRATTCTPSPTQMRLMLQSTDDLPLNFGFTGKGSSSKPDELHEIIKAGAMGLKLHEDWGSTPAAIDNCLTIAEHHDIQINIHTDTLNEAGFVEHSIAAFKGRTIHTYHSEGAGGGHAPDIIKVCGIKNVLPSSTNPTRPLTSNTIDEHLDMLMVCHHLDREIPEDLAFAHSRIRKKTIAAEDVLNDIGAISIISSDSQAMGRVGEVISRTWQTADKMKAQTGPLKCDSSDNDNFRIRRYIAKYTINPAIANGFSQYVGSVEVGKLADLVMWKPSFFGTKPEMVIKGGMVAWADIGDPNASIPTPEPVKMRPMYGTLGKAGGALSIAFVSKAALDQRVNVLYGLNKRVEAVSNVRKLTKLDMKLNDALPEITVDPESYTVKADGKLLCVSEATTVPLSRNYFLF
experiment: Inhibition of jack bean urease assessed as reduction on ammonia production using urea as substrate incubated for 15 mins by indophenol reagent based microplate reader assay
When answering, recall that pIC50 equals minus log10 of the concentration in mol/L, and write that number alone.

Please review the following examples before continuing.
COc1ccc(-c2c/c(=N\C(=O)Oc3ccccc3)c3c(O)cc(O[C@@H]4O[C@H](CO)[C@@H](O)[C@H](O)[C@H]4O[C@@H]4O[C@@H](C)[C@H](O)[C@@H](O)[C@H]4O)cc3o2)cc1O : 4.81
COc1ccc(-c2c/c(=N\C(=S)Nc3cccc([N+](=O)[O-])c3)c3c(O)cc(O[C@@H]4O[C@H](CO)[C@@H](O)[C@H](O)[C@H]4O[C@@H]4O[C@@H](C)[C@H](O)[C@@H](O)[C@H]4O)cc3o2)cc1O : 4.90
COc1ccc2cc([C@@H](C)c3nc4cc(Cl)ccc4[nH]3)ccc2c1 : 4.44
C[C@H](O)c1nc2ccccc2[nH]1 : 4.66
NS(=O)(=O)c1ccc(NC=C2C(=O)NC(=S)NC2=O)cc1 : 5.42

// moving on: another record for pIC50
Memo: Oc1ccc(C2Oc3cc(O)cc(O)c3/C(=N/C(=S)Nc3ccccc3)C2O)c(O)c1 (stereo unspecified) , reported pIC50: 5.13
